Attribution: PubChem BioAssay (NCI)

Measured TGI values are reported for all entries that follow.
tested on: SK-OV-3 ovarian; assay: NCI tumour cell line growth inhibition, 48 h

| molecule | observed |
| --- | --- |
| COC(=O)[C@]12CSC[C@H]1C[C@H](c1ccccc1OC)N2 | > 100 µM |
| COc1cccc2c1-c1c(c3ccc([N+](=O)[O-])cc3c(=O)n1CCCCl)C2=O | > 50 µM |
| O=C(CF)N(O)c1ccc(/C=C/c2ccccc2)cc1 | 32.1 µM |
| CCC1CN2CCC1CC2 (configuration not stated) | > 100 µM |
| CCOC(=O)C1=C(O)CSC1=Nc1ccccc1 | > 100 µM |
| CC(C)OC(=O)C1=C(O)c2ccccc2S(=O)(=O)N1 | > 100 µM |

# input for lookup
Prompt: Write down the reported TGI of CN(C)c1ccc(/C=C2\N=C(c3ccc([N+](=O)[O-])cc3)OC2=O)cc1 , test system: SK-OV-3 ovarian.
Response: > 100 µM

----------
system: OVCAR-3 ovarian; experiment: NCI tumour cell line growth inhibition, 48 h
Measured TGI values are reported for all entries that follow.
Give just the number in µM; leave the unit off.

| compound | unit-spec | TGI |
| --- | --- | --- |
| O=C(O)c1cc2cc(c1)N=Cc1ccccc1OCc1cccc(n1)COc1ccccc1C=N2 | µM | 13.2 |
| COC1CCC(O)C(/C=C/[N+](=O)[O-])C1 (stereo not given) | µM | 22.3 |
| Nc1c(-c2nc3ccccc3o2)sc(=S)n1-c1ccc(Cl)cc1 | µM | 38.1 |

# input for lookup
Prompt: Write down the reported TGI of CC(=O)c1cc2c(cc1Nc1c3ccccc3nc3occ(Cl)c13)OCO2 , test system: OVCAR-3 ovarian.
Response: 0.178

----------
Measured TGI values are reported for all entries that follow.
system: XF 498 CNS; assay: NCI tumour cell line growth inhibition, 48 h

Worked set:
| molecule | TGI |
| --- | --- |
| COc1ccc(N=Nc2c(-c3ccccc3)nn(C(=O)CC(=O)Nc3cccc(Cl)c3)c2-c2ccccc2)cc1 | > 100 µM |
| NNC(=S)N/N=C(/C(=O)Nc1cc(Cl)ccc1Cl)C1C(=O)Nc2ccccc2S1=O (stereo unspecified) | > 100 µM |
| O=C(c1cc2ccccc2o1)N(Cc1ccccc1)c1ccccc1 | 41.8 µM |
| O=C1N(c2ccccc2)C(=O)C2(SC=NN2Cc2ccccc2)N1c1ccccc1 (stereo unspecified) | > 100 µM |
| Cc1c(C(=O)C/C(=N/NC(=O)C[n+]2ccccc2)C(=O)Nc2ccccc2)[n+](=O)c2ccccc2n1O | > 100 µM |

Prompt: Need TGI, item Oc1c2c(c3c4c1N=CC=4CCN=3)-c1c(Br)cc(Br)cc1CCN2
Response: > 38.5 µM

----------
system: COLO 205 colon; assay: NCI tumour cell line growth inhibition, 48 h
metric: GI50

| compound | GI50 |
| --- | --- |
| C[C@@H]1CC[C@@H]2[C@@H]1[C@H](OC(=O)/C=C/c1ccccc1)[C@]1(C3CCCCC3)C[C@@H](NC(=O)CO)[C@@]2(C)O1 | 16.6 µM |
| Cc1cccc(C(=O)/C=C/SC(=NC#N)SCc2ccccc2)c1 | 33.6 µM |
| CCOC(=O)C1=C(C)NC2SC(=O)/C(=C\c3ccccc3O)N2C1c1ccccc1 (centres undefined) | 23.2 µM |
| CC/C=C\C/C=C\C[C@H](O)C/C=C1/C(=O)C=C[C@@H]1C/C=C\CCCC(=O)O | 3.78 µM |
| C/C(=C\C1=C(Cl)C(=O)c2ccccc2C1=O)C(=O)O | 18.7 µM |
| COc1ccc2c(c1)C(=O)C(=O)c1cc(O)c(OC)c(OC)c1-2 | 1.89 µM |
| CC[C@H](Nc1nc(N)nc(C)c1C#N)c1nc2cccc(NCc3ccc(C(=O)NO)cc3)c2c(=O)n1-c1ccccc1 | 2.05 µM |
| COc1ccc(C2=NN(C(=O)c3cc(OC)c(OC)c(OC)c3)C(c3ccc(Cl)cc3)C2)cc1OC (centres undefined) | 2.44 µM |

# input for lookup
Prompt: Need GI50, item CCOC(=O)/C=C/c1cc2cc(-c3csc4ccccc34)ccc2[nH]1
Response: 7.16 µM
